Exercise: for every item that follows, state its recorded max response.
- System: HEK293
- protocol_details: Cytotoxic Profiling of Annotated Libraries Using Quantitative High-Throughput Screening (AID 1296008); also: % is scaled to controls: 0 for no effect and ±100 for the full control effect; nearly all actives have a fitted effect of over 60% in size
- reported_conditions: Five cell lines viability, CellTiter-Glo ATP luminescence, 48-72 h; hits give low values
Results filed as inconclusive are left out.
Write the number in % without appending the unit.

## Input Look up max response: C/C=C/c1ccc2oc(-c3ccc(O)c(OC)c3)c(C)c2c1
## Output -4.11

## Input Look up max response: O=C(O)c1cc(-c2c(-c3ccccc3)nn3ccccc23)n[nH]c1=O
## Output -2.65

## Input Look up max response: CC1=C(C(=O)O)/C(=C\CO[C@@H]2O[C@H](CO)[C@@H](O)[C@H](O)[C@H]2O)C(OC(=O)/C=C/c2ccc(O)cc2)C1 (stereo partly drawn)
## Output 0.858

## Input Look up max response: C[C@H](O)[C@H](O)/C=C/c1cccc(O)c1CO
## Output -4.7

## Input Look up max response: CC(C)c1nnc(-c2ccc(-c3ccccc3)nc2)n1-c1cccc2nonc12
## Output 3.01

## Input Look up max response: CCCCNc1ccc(-c2ccc(CN3CCOCC3)cn2)c(NC2CCC(O)CC2)c1 (stereo not drawn)
## Output -7.2

## Input Look up max response: C=C1CC[C@@H]2[C@](C)(CO[C@@H]3O[C@H](CO)[C@@H](O)[C@H](O)[C@H]3O)[C@H](O)CC[C@@]2(C)[C@@H]1C/C=C1/C(=O)OC[C@H]1O
## Output -4.02

## Input Look up max response: COc1cc(C(=O)OC[C@@]2(O)CO[C@@H](O[C@H]3[C@H](Oc4ccc(C(=O)O)cc4OC)O[C@H](CO)[C@@H](O)[C@@H]3O)[C@@H]2O)ccc1O
## Output -19.1
